So I've got a bunch of compounds here, and I need their bioavailability values.
Test: Oral bioavailability in Sprague-Dawley rat at 4 mg/kg
Format: ADME, organism-based
Details: in vivo
Field note: include the unit after the figure.

Which bioavailability value belongs to O=C(NC[C@@H](O)C(=O)O)c1ccc(CN(C(=O)Nc2cccc(Br)c2)c2ccc(C3CCCCC3)cc2)cc1 ?
21%

Which bioavailability value belongs to O=C(NC[C@@H](O)C(=O)O)c1ccc(CN(C(=O)Nc2cc(Br)cc(C(F)(F)F)c2)c2ccc(C3=CCCCC3)cc2)cc1 ?
14%

Which bioavailability value belongs to CSc1cccc(NC(=O)N(Cc2ccc(C(=O)NC[C@@H](O)C(=O)O)cc2)c2ccc(C3CCCCC3)cc2)c1 ?
8%

Which bioavailability value belongs to COc1cc(NC(=O)N(Cc2ccc(C(=O)NC[C@@H](O)C(=O)O)cc2)c2ccc(C3=CCCCC3)cc2)cc(C(F)(F)F)c1 ?
7%

Which bioavailability value belongs to O=C(NC[C@@H](O)C(=O)O)c1ccc(CN(C(=O)Nc2cc(Cl)cc(Cl)c2)c2ccc(C3=CCCCC3)cc2)cc1 ?
32%

Which bioavailability value belongs to CC(C)(C)[C@H]1CC[C@H](N(Cc2ccc(C(=O)NC[C@@H](O)C(=O)O)cc2)C(=O)Nc2cc(C(F)(F)F)cc(C(F)(F)F)c2)CC1 ?
11%

Which bioavailability value belongs to CS(=O)(=O)c1cc(NC(=O)N(Cc2ccc(C(=O)NC[C@@H](O)C(=O)O)cc2)c2ccc(C3=CCCCC3)cc2)ccc1OC(F)(F)F ?
10%

###

Molecular target: Glucagon receptor (Homo sapiens, UniProt P47871)
Sequence (P47871 whole entry): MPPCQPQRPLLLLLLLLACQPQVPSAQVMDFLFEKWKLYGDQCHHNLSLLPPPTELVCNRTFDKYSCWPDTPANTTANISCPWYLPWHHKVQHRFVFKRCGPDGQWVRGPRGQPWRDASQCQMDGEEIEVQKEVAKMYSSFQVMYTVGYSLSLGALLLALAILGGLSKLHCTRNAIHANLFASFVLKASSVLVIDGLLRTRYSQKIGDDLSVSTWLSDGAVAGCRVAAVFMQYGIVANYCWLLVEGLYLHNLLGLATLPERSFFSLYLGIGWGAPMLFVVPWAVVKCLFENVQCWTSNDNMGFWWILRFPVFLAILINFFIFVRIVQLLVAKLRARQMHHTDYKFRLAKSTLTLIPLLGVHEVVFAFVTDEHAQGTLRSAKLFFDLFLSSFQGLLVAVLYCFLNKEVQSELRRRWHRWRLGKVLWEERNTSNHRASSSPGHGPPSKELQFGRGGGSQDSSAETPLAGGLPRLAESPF
Assay: Binding affinity to human cloned GluR expressed in BHK cells
Measured Property: pIC50
Please treat pIC50 as minus the base-10 logarithm of the molar concentration.

Could you share what pIC50 was measured for CC(C)(C)c1ccc(N(Cc2ccc(C(=O)NCC(O)C(=O)O)cc2)C(=O)Nc2ccc(OC(F)(F)F)cc2)cc1 (racemic) , tested on Glucagon receptor (Homo sapiens, UniProt P47871)?
7.26

Could you share what pIC50 was measured for Cc1cc(C)cc(NC(=O)N(Cc2ccc(C(=O)NC[C@@H](O)C(=O)O)cc2)[C@H]2CC[C@H](C(C)(C)C)CC2)c1 , tested on Glucagon receptor (Homo sapiens, UniProt P47871)?
7.57

Could you share what pIC50 was measured for CC(C)(C)c1cccc(NC(=O)N(Cc2ccc(C(=O)NC[C@@H](O)C(=O)O)cc2)c2ccc(C3CCCCC3)cc2)c1 , tested on Glucagon receptor (Homo sapiens, UniProt P47871)?
7.74

Could you share what pIC50 was measured for CSc1cccc(NC(=O)N(Cc2ccc(C(=O)NC[C@@H](O)C(=O)O)cc2)c2ccc(C3CCCCC3)cc2)c1 , tested on Glucagon receptor (Homo sapiens, UniProt P47871)?
8.05

Could you share what pIC50 was measured for COc1cc(NC(=O)N(Cc2ccc(C(=O)NC[C@@H](O)C(=O)O)cc2)c2ccc(C3=CCCCC3)cc2)cc(C(F)(F)F)c1 , tested on Glucagon receptor (Homo sapiens, UniProt P47871)?
7.85

Could you share what pIC50 was measured for CS(=O)(=O)c1cc(NC(=O)N(Cc2ccc(C(=O)NC[C@@H](O)C(=O)O)cc2)c2ccc(C3=CCCCC3)cc2)ccc1OC(F)(F)F , tested on Glucagon receptor (Homo sapiens, UniProt P47871)?
8.30

Could you share what pIC50 was measured for O=C(NC[C@@H](O)C(=O)O)c1ccc(CN(C(=O)Nc2cccc(Cl)c2)c2ccc(C3=CCCCC3)cc2)cc1 , tested on Glucagon receptor (Homo sapiens, UniProt P47871)?
7.85

These data points were gathered from ChEMBL document CHEMBL1140036.
